// data source = paper PMC8993905

Substrate: CC(C)C[C@H](N)C(=O)Nc1ccc([N+](=O)[O-])cc1
Assay: purified protein
Format: biochemical, Pyrococcus horikoshii
Conditions: pH 7.5 (20 mM Tris, 100 mM NaCl), 50 °C, 2.8% DMSO, 0.1-6.4 mM substrate
Recorded endpoint: kcat

Consider the reported kcat for these proteins:
1. TET2 (Pyrococcus horikoshii OT3; H123K) (protein, full length, 353 residues per subunit, pET41c in E. coli BL21(DE3), no tag mentioned (heat step, Resource Q, Superdex 200), 39 kDa subunit, 468 kDa homododecamer, two Zn per active site) MEVRNMVDYELLKKVVEAPGVSGYEFLGIRDVVIEEIKDYVDEVKVDKLGNVIAHKKGEGPKVMIAAHMDQIGLMVTHIEKNGFLRVAPIGGVDPKTLIAQRFKVWIDKGKFIYGVGASVPPKIQKPEDRKKAPDWDQIFIDIGAESKEEAEDMGVKIGTVITWDGRLERLGKHRFVSIAFDDRIAVYTILEVAKQLKDAKADVYFVATVQEEVGLRGARTSAFGIEPDYGFAIDVTIAADIPGTPEHKQVTHLGKGTAIKIMDRSVICHPTIVRWLEELAKKHEIPYQLEILLGGGTDAGAIHLTKAGVPTGALSVPARYIHSNTEVVDERDVDATVELMTKALENIHELKI    16.9 ± 3.6 s⁻¹
2. TET2 (Pyrococcus horikoshii OT3; H123Y) (protein, full length, 353 residues per subunit, pET41c in E. coli BL21(DE3), no tag mentioned (heat step, Resource Q, Superdex 200), 39 kDa subunit, 468 kDa homododecamer, two Zn per active site) MEVRNMVDYELLKKVVEAPGVSGYEFLGIRDVVIEEIKDYVDEVKVDKLGNVIAHKKGEGPKVMIAAHMDQIGLMVTHIEKNGFLRVAPIGGVDPKTLIAQRFKVWIDKGKFIYGVGASVPPYIQKPEDRKKAPDWDQIFIDIGAESKEEAEDMGVKIGTVITWDGRLERLGKHRFVSIAFDDRIAVYTILEVAKQLKDAKADVYFVATVQEEVGLRGARTSAFGIEPDYGFAIDVTIAADIPGTPEHKQVTHLGKGTAIKIMDRSVICHPTIVRWLEELAKKHEIPYQLEILLGGGTDAGAIHLTKAGVPTGALSVPARYIHSNTEVVDERDVDATVELMTKALENIHELKI    15.7 ± 2.7 s⁻¹

Now let's try a different one.
Given the entry TET2 (Pyrococcus horikoshii OT3) (protein, full length, 353 residues per subunit, pET41c in E. coli BL21(DE3), no tag mentioned (heat step, Resource Q, Superdex 200), 39 kDa subunit, 468 kDa homododecamer, two Zn per active site) MEVRNMVDYELLKKVVEAPGVSGYEFLGIRDVVIEEIKDYVDEVKVDKLGNVIAHKKGEGPKVMIAAHMDQIGLMVTHIEKNGFLRVAPIGGVDPKTLIAQRFKVWIDKGKFIYGVGASVPPHIQKPEDRKKAPDWDQIFIDIGAESKEEAEDMGVKIGTVITWDGRLERLGKHRFVSIAFDDRIAVYTILEVAKQLKDAKADVYFVATVQEEVGLRGARTSAFGIEPDYGFAIDVTIAADIPGTPEHKQVTHLGKGTAIKIMDRSVICHPTIVRWLEELAKKHEIPYQLEILLGGGTDAGAIHLTKAGVPTGALSVPARYIHSNTEVVDERDVDATVELMTKALENIHELKI , report its measured kcat.
14.1 ± 1.7 s⁻¹
